Cited source for all entries: PubChem BioAssay AID1918934

system: 292921-168-R-J2-PDC complex spheroid viability; experiment: Anticancer human tumor 292921-168-R-J2-PDC patient-derived pancreatic carcinoma cell line growth inhibition; conditions: second compound 0.1 µM; first compound 0.03 µM; stronger effect = lower value;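 further: seven day compound exposure before luminescent viability read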
Note to self: viability, T/C under 50% means y, ties and anything higher get n.

The examples below pair each entry with its known result.
- Nc1ccn(C2OC(CO)C(O)C2(F)F)c(=O)n1 (configuration not stated) + NC1CC1c1ccc(-c2cccc(O)c2)cc1: y
- COc1cc(C2c3cc4c(cc3C(OC3OC5COC(C)OC5C(O)C3O)C3COC(=O)C23)OCO4)cc(OC)c1O (configuration not stated) + NC1CC1c1ccc(-c2cccc(O)c2)cc1: n
- NS(=O)(=O)OCC1CC(n2ccc3c(NC4CCc5ccccc54)ncnc32)CC1O (configuration not stated) + NC1CC1c1ccc(-c2cccc(O)c2)cc1: y
- CCc1c2c(nc3ccc(O)cc13)-c1cc3c(c(=O)n1C2)COC(=O)[C@]3(O)CC + NC1CCC(NC2CC2c2ccccc2)CC1: y

# input Would you kindly verify if viability, T/C of Nc1ncn(C2CC(O)C(CO)S2)c(=O)n1 (configuration not stated) + NC1CCC(NC2CC2c2ccccc2)CC1 is strictly less than 50%?
# output n

# input State whether 50% exceeds viability, T/C recorded for Nc1ccccc1NC(=O)c1ccc(CNC(=O)OCc2cccnc2)cc1 + NC1CCC(NC2CC2c2ccccc2)CC1 .
# output y
